Numbers sourced from the supplement of paper PMC12455559.

Measured PET hydrolysis accompanies every entry in the list below.
- Assay: PET hydrolysis, aromatic products released after 48 h (umol product/mg enzyme); higher = more PET depolymerization activity
- Condition Parameters: substrate: cryPow; 40 °C; pH 7.5
Measurement Name: PET hydrolysis

INSERT INTO assay_data (item_sequence, reported_value) VALUES
  ('APGPSAPCSNCTRGPNPTEASLKSDRGPFTTARFSVSGFLKGFGDSTVYYPTNTTGRMGAIAVIPGYLSYESSIEWWGPRLASHGFVVMTMNTSTIYDQPDSRATQLSKALDYLIAQSNTSSSPIYNKIDSTRLGAIGWSMGGGGSLKLSTQRSLNAIIPQAPWYSGSNSFNTIKTPALILACSADTVAPVSVHASPFYNRIPGSTPKAFLEIYGGSHFCANSGYPNEDLLGLYGIAWMKRFIDFDNRYSQFLCGPNHEGDFAISDYRQNCPY [ESM096]', 22),
  ('TDNPHQRGPNPSQASISANRGTFATAETSVGSGNGFGAAKIYYPTDTGQGTFGAIAVSPGYTATWAAEGAWMGHWLASFGFVVIGIDTINRNDFDVARGTQLLAALDYLTQRSSVRTRVDPSRLAVMGHSMGGGGTISAALRRPTLKAAIGLAPYSPSQTTTGMQVPTVLLAGQNDGTSTPASIITLHNNIPASTEKAYLELTGAGHGFPTSNNSVVTRKVIPWMKIFIDQDTRYTQFLCPLQDWTGIRSYRNSCPLLPNDPGTTFSLAGSASGKCVDVPGRVQTNGTGLIIWTCNGAANQHWTRTAAGELRIYGNSKCMDASGQGARVTINSCNGGSGQKWTVGTNGTVTNAASAGCLDTGGTADNAPVIVTTCNGGSGQIWIKRS [ESM184]', '< 3');

----------
- Assay: PET hydrolysis, aromatic products released after 48 h (umol product/mg enzyme); higher = more PET depolymerization activity
- Condition Parameters: substrate: cryPow; 40 °C; pH 6.5
Catalogue of PET hydrolysis readings, one per entry.
Measurement Name: PET hydrolysis

INSERT INTO measurements (item_sequence, reported_value) VALUES
  ('MPPPDSGAAAHERVHAEPSDPATVGSAGGNPFARGPDPTLASVAAEFGPFATTQLSVPPGHGFNGGYVYYPTDASPTFGAVAIVPGYTALFADEEAWMGPRLASFGFVVIGIETNSREDWDRARGAQLLAALDYVTQHSTVRTRVDSSRLAVIGHSMGGGGAFAAATRRPSLKAVVGLAPYFPSGDLATVRVPTLIIGGQRDTTVTPSYLDDLYATLPTRTPSAYLMLADADHLFPTRPNPVEMRLLIPWLKIFVDRDTRYVRFLCPLADRSGIAQYRVTCPLVPPA [TEP003]', '< 3'),
  ('ATTAAAPAAAVRADSPYQRGPAPTEASVTAARGPFAIAQVTVPAGSGTGFNKGTIYYPTDTGQGTFGGVAVMPGFTSPQSVIQWLGPRLASQGFLVFTLDSLSLVDFPTARSQQLLAALDYLATRSTVRTRLDPNRLAVMGHSMGGGASLWAAQNRPSLKASVPLAPWETDTTWQGVRVPTMIIGGQADTVAPPATMAIPDYTSMTSAPEKAYLELRNGGHGAPATESPTVAKYALSWLKRFVDLDTRYDQFLCPAPAPTTAISQYRDTCPNG [DP058]', '< 3'),
  ('GRVMAASDSGTAADERVYAEPSVDPASVGSAGRNPYERGPEPTLASVAAEYGPFDTDQLTVPPGHGFNGGYIYYPTDTSQTFGAVAIVPGYTALFADEEAWMGPRLASFGFVVIGIETNSRDDWDIARGEQLLAALDYLVHHSPVRARIDANRLAVVGHSMGGGGALFAATQRPSLKAVVALAPYFPSGSLAAIRVPTMIIGGQDDTVVTPSYLDDLYASRPAHTPGAYLMLADADHLFATRPNTVEMRLLIPWLKIFVDHDTRYTQFLCPVADRSGIARHHVT [TEP126]', '< 3');

----------
Recorded PET hydrolysis, one value per entry.
- Assay: PET hydrolysis, aromatic products released after 48 h (umol product/mg enzyme); higher = more PET depolymerization activity
- Condition Parameters: substrate: cryPow; 40 °C; pH 6.5
Measurement Name: PET hydrolysis

INSERT INTO assay_data (item_sequence, qualifier_operator, reported_value) VALUES
  ('AANPYERGPDPTDAILEAARGPFETSRTEVPALSVTGFGGGTIYYPATTSAGTFGGVAVAPGYTADRTSLAWLAERLASHGFVVFNIDTLTRLDQPDSRGRQLLAALDYLTQRSSVRGRLDAGRLGVMGHSMGGGGTLEAARDRPSLQAAVPLTPWDLTKIWSGVRVPTMIVGAEADTIAPVASHAEPFYQSLPSSPGKAYLELNNATHFAPNVPDTTIGKYVVAWMKRFVDDDTRYTRFLCPGPSGGLTVEEYRSTCPFS [TEP194]', '=', 7),
  ('SNPAPDTGSGDGSSSQYQIGPDPTVSFLEASSGPFSVRTSNVSSLVSGFGGGTIHYPTGVNRPMAAIVVIPGFVSAESSIDWWGPKLASYGFVVMTIGTNSGFDQPPSRARQINNALDYLVAQNTNSRSPVNGMIDTNRLGAMGWSMGGGGTLRVAEEGRIKAAIPLAPWDTTSFRSNRTPTLIFACGSDSIAPVRTHASPFYNQIPTSTPKIFIEINRGNHYCANGGNSNNATLGRLGVAWMKRFLDEDRRYSQFLCGPRHTSDRNISESRDTCNF [ESM186]', '=', 3),
  ('ATGPSSPCTNCTRGPNPTVAALKSNSGPFSTAKFSVSGYLKGFGDSTVYYPTNTTGKMGAIAVIPGYLSYESSIEWWGPRLASHGFVVITMNTNTIYDQPDSRATQLSKALDYVIAQSNSSSSPIAGKVDSTRLGAIGWSMGGGGSLKLSTQRSLNAIIPQAPYYAGSNSFNTIKTPTLILACGVDAVAPVAAHASPFYNKIPNTTPKAFLEIYGGSHFCANSGYPNQDLLGMYGISWMKRFIDFDKRYSQFLCGPNHQADLAISEYRQNCNY [ESM048]', '<', 3),
  ('ANPYERGPNPTQALLEARSGPFSVSSERAWRLGSDGFGGGTIYYPRENNTYGAVAISPGYTGTQASVAWLGERIASHGFVVITIDTNTTLDQPDSRADQLEAALDHMVDGASSTVRSRIDRNRLAVMGHSMGGGGTLRLASQRPDLKAAIPLTPWHLNKSWSNVQVPTLIIGADLDTIAPVLTHAEPFYNSIPTSTRKAYLELDGATHFAPNITNSTIGMYSVAWLKRFVDEDTRYTQFLCPGPRTGLFSDVEEYRSTCPF [TEP014]', '=', 1.5);

----------
- Assay: PET hydrolysis, aromatic products released after 48 h (umol product/mg enzyme); higher = more PET depolymerization activity
- Condition Parameters: substrate: cryPow; 40 °C; pH 5.5
Measurement Name: PET hydrolysis

INSERT INTO assay_data (item_sequence, reported_value) VALUES
  ('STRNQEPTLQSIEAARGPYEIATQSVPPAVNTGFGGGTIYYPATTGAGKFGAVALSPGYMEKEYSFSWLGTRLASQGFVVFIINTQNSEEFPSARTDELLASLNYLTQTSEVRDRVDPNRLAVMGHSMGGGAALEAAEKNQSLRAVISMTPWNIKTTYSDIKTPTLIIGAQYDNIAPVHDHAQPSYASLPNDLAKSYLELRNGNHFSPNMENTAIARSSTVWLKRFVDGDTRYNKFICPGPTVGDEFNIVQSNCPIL [DP079]', '< 3'),
  ('ADNPYERGPNPTQASIAASRGTFATAEVSVGGGNGFAAAKIYYPTDTSQGTFGAIAIVPGYTATWAAEGAWMGPWLASFGFVVIGIDTLSRNDFDTARGTQLLAALDYLTQRSSVRSRVDASRLAVMGHSMGGGGAISAALRRPSLKAAVGLAPFSPSQGTSGMRVPSMLLAGQRDGTVTPSSVRNLYNAIPATTEKAYLELTGAGHGFPTSANSVMMRKVIPWLKIFVDQDTRYQQFLCPLVDWTGITSYQSSCPLIPGGSTGTTYNLVNSSGKCADVNAASQVNGAALLLWTCHTNPNQRWTETSAKELRVYDNPKCMDAGAAQQGTRVTINSCSGGGSQKWTVNANGTVTNDLSGRCLGAAGGATTDNTPLVVASCDGSPGQQWTKQS [TEP093]', 12),
  ('AEPATIHGPAPTEESITAPTGPFEIDRETVPRSTVEGFGGGTIYYPTDTSEGTFSAVAIAPGYTAGQETLAWLGPRLASQGFVVFTIDTITTSDRPDARAEQLAASLDYLTGSSEVQDRIDPARLGVMGHSMGGGGALQAALDDPGLKAAIPMTPWNTVKDFSGVRTPTMIIGAQNDTVAPVAQHSEPFYESLPDDPGKAYLELAGASHFAPNRDDTTIAKSSIAWLKRFLDDDTRYDRFLCPPPQDPEISDYRATCPY [DP023]', '< 3'),
  ('ASPYERGPNPTAASVSATTGPFAIASVSVARGNGFGGGVIYYPTATNQGTFGGIAISPGLNGTWAGIAWLGPRLASQGFVVFGIETNNLNDSPTSRGTQLLAALDYLTQRSTVRTRVDAGRLAVMGHSMGGGGALDAALRRPSLQAAIGNAPHLPSGTLSNDRVPTMIYAMQNDTLVPPSRLTTLYNSIPATTERGYILVTGAGHNYIGQPSTTLARTMIPWFKIFIDDDTRYSQFLCPMSNQSGISQYRNSCPLS [ESM160]', 13.5),
  ('ASPYERGPDPTDSILEASRGPFATSQLSVSSLSVSGFGGGTVYYPTDTSQGTFGAIAISPGYTARWSSLAWLGPRIASHGFVVIGIETNTIYDQPASRGRQLLAALDYLTSSSPSTVRSRIDASRLAVAGHSMGGGGTLEAANDRPSLQAAVPLAPWNLTKIWSGVRVPTMIIGGEADTVAPVASHSEPFYQSIPSSVEKAYLELNNASHFFPQTTNTTMAKSMVAWLKRFVDDDTRYDQFLCPAPRGLAIQEYRDTCPIS [TEP144]', '< 3'),
  ('AGNPYQRGPDPTLASVAASRGTFATAQVSVPPGNGFNGGTIYYPTDTTQGTWGAVAIVPGYTALFANEEAWMGPWLASFGFVVIGIETNSRNDFDTARGTQLLAALDYLTQKSPVRDRVDSARLGVIGHSMGGGGVVYATEHRPSLKAAVALAPFSPSQDMSTDHVPTMVMAGQNDTVVTPSYLDGLYATMPASAQSDFVQLAGADHVAYTHPNTTEMRLLIPWLKIFLDDDTRYTQFLCPLKDSTGVSMYRAKCPYVPPGGPTTSPTPTTTPTPPDGGACSATYRTVNSWSGGYQGEITVTAGGAAIDGWTVRWSLGGGQTVTQVWNGTLSTSGSTASVANASYNGSLQASASTTFGFLANGTPSTPALTCSSP [ESM084]', 5);
